targetDesc: angiotensin II contracture of rabbit aortic strip (Oryctolagus cuniculus, UniProt P34976)
Construct: A spiral preparation of the aorta having a width of 1.5 to 2 mm and a length of 15 to 20 mm was prepared therefrom; from tissue; host or cells: thoracic aorta of male New Zealand white rabbit, spiral strip
Sequence (P34976 whole entry): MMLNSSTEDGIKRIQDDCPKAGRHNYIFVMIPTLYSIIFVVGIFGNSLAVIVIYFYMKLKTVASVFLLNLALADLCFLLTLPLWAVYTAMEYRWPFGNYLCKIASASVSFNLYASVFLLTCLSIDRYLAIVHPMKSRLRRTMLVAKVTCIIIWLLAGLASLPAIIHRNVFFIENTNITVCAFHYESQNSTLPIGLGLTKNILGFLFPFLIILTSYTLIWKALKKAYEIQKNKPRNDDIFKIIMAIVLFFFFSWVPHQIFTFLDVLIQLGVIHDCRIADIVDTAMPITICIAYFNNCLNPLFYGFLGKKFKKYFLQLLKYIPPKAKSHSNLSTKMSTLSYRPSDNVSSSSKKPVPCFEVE
assayMethodText: Angiotensin II contracture antagonism through the use of rabbit aortic strip
Type: cell-based, rabbit (New Zealand white)
measurementParameters: negative log of antagonist concentration giving dose ratio 2, Schild's equation, 40 min preincubation, read-out: pA2 (converted)
Measured Kb, listed per entry for reference.
Write the value in nM as a bare number.

Please review the following examples before continuing.
CCc1nc2c(C)ccnc2n1Cc1ccc(-c2ccccc2C(=O)O)cc1 3.16
CC#Cc1nc2c(C)ccnc2n1Cc1ccc(-c2ccccc2-c2nnn[nH]2)cc1 0.891

// moving on: another record for Kb
Qu. Which measured Kb value corresponds to CCSc1nc2c(C)ccnc2n1Cc1ccc(-c2ccccc2C(=O)O)cc1 ?
Ans. 5.25
